# Test system: U2OS
# protocol.text: Multiplex assay against U2OS
# Format: toxicity, cell-based
# stated.conditions: human, 48 h, 10 µM, compound concentration 10 uM, replicate 1
Non-standard residues stand in square brackets, D forms with d. Residues, ends and D or L forms follow the SMILES beside them.
# Condition met = Population Tubulin-Different-Phenotype (%) below 4% (exclusive); Condition not met = Population Tubulin-Different-Phenotype (%) at/above 4%

{"columns": ["molecule", "assigned.class"],
 "data": [
  ["O=C(Nc1cc(-c2ccccc2)nn1-c1ccccc1F)c1ccc([N+](=O)[O-])cc1", "Condition not met"],
  ["Cc1cc(=O)n(C)c2cc(N3C(=O)CC[C@H](NS(=O)(=O)CC(C)C)[C@H]3c3ccc(Cl)cc3)ccc12", "Condition not met"],
  ["COc1cc(Nc2ncc3c(n2)-c2ccc(Cl)cc2C(c2c(F)cccc2OC)=NC3)ccc1C(=O)O", "Condition not met"],
  ["C=CCN1C[C@H](C(=O)N(CCCN(C)C)C(=O)NCC)C[C@@H]2c3cccc4[nH]cc(c34)C[C@H]21", "Condition met"],
  ["CCCCC[C@H](O)/C=C/[C@H]1[C@H](O)CC(=O)[C@@H]1CCCCCCC(=O)O", "Condition met"],
  ["CSc1nc(NC2CCCC2)c([N+](=O)[O-])c(NC2CCCC2)n1", "Condition met"],
  ["Cn1cc(C(=O)OCC2CCN(CCNS(C)(=O)=O)CC2)c2ccccc21", "Condition not met"],
  ["O=C(NCCNCC(O)COc1ccc(O)cc1)N1CCOCC1.O=C(NCCNCC(O)COc1ccc(O)cc1)N1CCOCC1.O=C(O)/C=C/C(=O)O (stereo not given) [XAMOTEROL FUMARATE]", "Condition met"],
  ["CC(C)C[C@@H]1NC(=O)[C@@H](C(C)C)NC(=O)[C@@H]2CCCN2C(=O)[C@@H](CC(=O)O)NC(=O)[C@@H](Cc2c[nH]c3ccccc23)NC1=O [BQ-123] (cyclo(L[dW][dD]P[dV]))", "Condition met"],
  ["Nc1nc(-c2ccco2)c2cnn(Cc3ccccc3F)c2n1", "Condition not met"],
  ["COc1cc2nc(N3CCN(C(=O)COc4c(OC)cccc4C(C)C)CC3)nc(N)c2cc1OC.Cl.Cl", "Condition not met"],
  ["CC(C)C[C@H](CO)Nc1nc(S[C@@H](C)c2ccccc2)nc2nc(N)sc12", "Condition not met"],
  ["CC(C)(C)c1ccc(CSc2cnn(C(C)(C)C)c(=O)c2Cl)cc1", "Condition not met"],
  ["O=c1nc2[nH]c3ccccc3nc-2c(=O)[nH]1", "Condition met"],
  ["CN1CCN(c2ccc(Nc3c4ccccc4nc4ccccc34)cc2)CC1.Cl.Cl.O", "Condition not met"],
  ["Cc1sc2c(c1C)C(c1ccc(Cl)cc1)=N[C@H](CC(=O)OC(C)(C)C)c1nnc(C)n1-2", "Condition not met"],
  ["CN1C[C@H](C(=O)N[C@]2(C)O[C@@]3(O)[C@@H]4CCCN4C(=O)[C@H](Cc4ccccc4)N3C2=O)C[C@@H]2c3cccc4[nH]cc(c34)C[C@H]21.CS(=O)(=O)O [DIHYDROERGOTAMINE MESYLATE]", "Condition met"],
  ["COc1cc(C(=O)N2CC[C@@H](O)[C@@H](N)C2)cc2nc(-c3cc4ccccc4n3CC3CC3)n(C)c12.Cl", "Condition not met"],
  ["O=c1ccc2ccc(OCCCCN3CCN(c4cccc5sccc45)CC3)cc2[nH]1", "Condition not met"],
  ["N[C@](CC1c2ccccc2Oc2ccccc21)(C(=O)O)[C@H]1C[C@@H]1C(=O)O", "Condition met"],
  ["COC(c1ccccc1)(c1ccccc1)[C@H](Oc1nc(C)cc(C)n1)C(=O)O", "Condition met"],
  ["Nc1nc(CC(=O)Nc2ccc(CCNC[C@H](O)c3ccccc3)cc2)cs1", "Condition met"]
]}
